A collection of compounds and their measured cell viability
Tested on: NOMO1
PROCEDURE_DETAILS: cell viability relative to DMSO control; higher = less cytotoxic
EXPERIMENTAL_PARAMETERS: RPMI 5 mM glucose + 10% dialyzed FBS; 48 h; 0.0211 µM
MEASURED_ATTRIBUTE: cell viability (%)

O=c1oc2cc(O)ccc2s1	119
CCC(=O)O[C@@]1(CC[C@H]2[C@@H]3CCC/4=C/C(=O)CC[C@]4(C)[C@H]3CC[C@]12C)C(=O)CO	119
COc1cc(C[C@@H](CO)[C@H](CO)Cc2ccc(O)c(OC)c2)ccc1O	107
COc1cccc(N(C)C(=S)Oc2ccc3c(c2)CCCC3)n1	84
